Tested on: MKNK2
condition info: concentration: 1 μM, replicates: in singlicate; n = 1;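 note: KINOMEscan kinase panel screen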
Reported %Inh by item:
Answer with a number only, understood to be in %.

# molecule, unit string, meas value
data = [
    ("Cc1c(O)cccc1Nc1ccnc2ccc(C(F)(F)F)cc12.Cl", "%", 1),
]

Measured %Inh for this entry Cc1cccc(-c2nc(Nc3ccc4[nH]ncc4c3)c3ccccc3n2)n1 on MKNK2: 0

Measured %Inh for this entry CC(C)(C)c1ccc(C(=O)Nc2cn3cc(Cl)ccc3n2)cc1 on MKNK2: 0

Measured %Inh for this entry COc1cc2ncn(-c3cc(OCC4CCCO4)c(C(N)=O)s3)c2cc1OC (stereo not drawn) on MKNK2: 4

Measured %Inh for this entry CN1C(=O)C(Nc2ccc(Cl)c(C(=O)O)c2)=C(c2ccc(Cl)cc2)C1=O on MKNK2: 10

Measured %Inh for this entry O=C1NC(=O)C(N2CCc3ccccc32)=C1c1ccccc1Cl on MKNK2: 0

Measured %Inh for this entry COc1cc(Nc2nccc(N3CCC(NC(=O)Nc4cc(C)ccc4C)C3)n2)cc(OC)c1OC (stereo not drawn) on MKNK2: 37

Measured %Inh for this entry Cc1cccc(-c2nc(-c3ccc(S(C)(=O)=O)cc3)sc2-c2ccnc(NCCc3ccccc3)c2)c1 on MKNK2: 0

Measured %Inh for this entry O=C(Nc1n[nH]c2nc(-c3nccs3)c(Br)cc12)C1CC1 on MKNK2: 51

Measured %Inh for this entry COc1ccc(C2=C(Nc3cccc(C(=O)O)c3)C(=O)NC2=O)cc1 on MKNK2: 43

----------
Test system: PKN1
condition info: concentration: 1 μM, replicates: in singlicate; n = 1
Reported %Inh by item:
Answer with a number only, understood to be in %.

Recorded %Inh, per entry:
# entry smiles, %Inh (%)
measured = [
    ("CCn1c(-c2ccccn2)nc2cnccc21", 0),
    ("Cc1csc(-c2nc(Nc3ccncc3)c3ccccc3n2)n1", 0),
    ("Fc1cc(Cl)ccc1Nc1ccnc2cc(-c3ccc(CN4CCCCC4)o3)ccc12", 0),
]

Value of %Inh reported for the molecule Cc1cccc(-c2nc(-c3ccc(S(C)(=O)=O)cc3)sc2-c2ccnc(NCCc3ccccc3)c2)c1 is 6

Value of %Inh reported for the molecule CCn1c(-c2cccnc2O)nc2cnccc21 is 0

Value of %Inh reported for the molecule Cc1cccc(-c2nc(Nc3cccc(C(N)=O)c3)c3ccccc3n2)n1 is 0

Value of %Inh reported for the molecule CC(=O)Nc1nc2cnc(Nc3cc(NC(=O)c4cccc(CCC#N)c4)ccc3C)nc2s1 is 12

Value of %Inh reported for the molecule C[C@@H]1CCCCN1c1cc(-c2ccc3c(N)n[nH]c3c2)nc(N)n1 is 6

Value of %Inh reported for the molecule Cn1ccc2ncnc(Oc3cccc(C(=O)Nc4ccccc4)c3)c21 is 0

----------
System: PRKCD
condition info: concentration: 1 μM, replicates: in singlicate; n = 1
Reported %Inh by item:
Answer with a number only, understood to be in %.

# entry smiles, target under test, unit string, meas value
records = [
    ("CCn1c(-c2cccnc2O)nc2cnccc21", "PRKCD", "%", 2),
    ("Cl.Oc1ccc(-c2nc(-c3ccccc3)[nH]c2-c2ccncc2)cc1", "PRKCD", "%", 0),
    ("COc1cc2nccc(Nc3ccc(NC(=O)c4ccc(C)cc4)c(O)c3)c2cc1OC.Cl", "PRKCD", "%", 24),
    ("CC(=O)Nc1nc2cnc(Nc3cc(NC(=O)c4cccc(CCC#N)c4)ccc3C)nc2s1", "PRKCD", "%", 8),
]

Turning now to a further record.
Measured %Inh for this entry Cc1c(O)cccc1Nc1ccnc2ccc(C(F)(F)F)cc12.Cl on PRKCD: 0

----------
Reported %Inh by item:
Test system: MAP4K5
condition info: concentration: 1 μM, replicates: in singlicate; n = 1
Answer with a number only, understood to be in %.

Recorded %Inh, per entry:
# compound, unit string, %Inh
records = [
    ("CC1=C(C(=O)Nc2cc3cn[nH]c3cc2F)C(c2ccc(C(F)(F)F)cc2)CC(=O)N1 (stereo not shown)", "%", 75),
    ("COc1ccccc1CNC(=O)c1cc(C(=O)c2ccccc2C)c[nH]1", "%", 0),
    ("Cc1ccc(C(=O)Nc2ccc(Nc3ccnc4cc(-c5ccccn5)ccc34)cc2O)cc1.Cl", "%", 70),
]

Value of %Inh reported for the compound Cc1cccc(-c2cc(Nc3ccncc3)c3ccccc3n2)n1 is 0

----------
Tested on: CSNK1E
condition info: concentration: 1 μM, replicates: in singlicate; n = 1
quantity name: %Inh (%)
Answer with a number only, understood to be in %.

Recorded %Inh, per entry:
# molecule, quantity name, meas value
measured = [
    ("Cc1c(Cn2ccn3c(=O)cc(N4CCOCC4)nc23)cccc1C(F)(F)F [GSK2289044]", "%Inh", 25),
    ("NC(=O)c1nnc2ccccc2c1N", "%Inh", 37),
    ("O=S(=O)(c1ccc(-c2ccnc3[nH]ccc23)cc1)N1CCCC1 [GSK846226]", "%Inh", 41),
    ("Cc1cc(N2Cc3ccccc3C2)nc(Nc2ccc(S(=O)(=O)N3CCOCC3)cc2)n1.Cl [GSK1669917]", "%Inh", 4),
]

Measured %Inh for this entry O=c1cc(N2CCOCC2)nc2n(Cc3cccc(Cl)c3Cl)ccn12 [GSK2286295] on CSNK1E: 41

Measured %Inh for this entry COc1cccc(NC(=O)NC2CCN(c3ccnc(Nc4ccc(F)cc4)n3)C2)c1 (stereo not shown) [GSK1379721] on CSNK1E: 37

Measured %Inh for this entry Cc1cccc(-c2nc(Nc3cccc(C(N)=O)c3)c3ccccc3n2)n1 [GW876019] on CSNK1E: 15

Measured %Inh for this entry COc1cc2ncn(-c3cc(OCC4CCCO4)c(C(N)=O)s3)c2cc1OC (stereo not shown) [GSK204607] on CSNK1E: 17

Measured %Inh for this entry Cn1ccc2ncnc(Oc3ccc(Nc4nc5ccccc5[nH]4)cc3)c21 on CSNK1E: 0

Measured %Inh for this entry Cl.Oc1ccc(-c2nc(-c3ccccc3)[nH]c2-c2ccncc2)cc1 [SB-428218] on CSNK1E: 28

----------
Reported %Inh by item:
Tested on: PAK1
condition info: concentration: 1 μM, replicates: in singlicate; n = 1
Answer with a number only, understood to be in %.

Recorded %Inh, per entry:
# compound, target under test, unit string, meas value
data = [
    ("O=C(Nc1ccc2c(c1)OCO2)NC1CCN(c2ccnc(Nc3ccc(F)cc3)n2)C1 (stereo not drawn) [GSK1379724]", "PAK1", "%", 18),
    ("COc1ccccc1CNC(=O)c1cc(C(=O)c2ccccc2C)c[nH]1 [GSK364507]", "PAK1", "%", 6),
    ("O=C(Nc1ccccc1)Nc1cccc(Oc2ccc3nccn3n2)c1", "PAK1", "%", 0),
]

Value of %Inh reported for the compound O=C(O)COc1ncnc2cc(-c3ccc4[nH]ncc4c3)sc12 is 5

Value of %Inh reported for the compound Cn1ccc2ncnc(Oc3cccc(C(=O)Nc4ccccc4)c3)c21 is 0

Value of %Inh reported for the compound CC(C)(C)c1ccc(C(=O)Nc2cn3cc(Cl)ccc3n2)cc1 is 0

Value of %Inh reported for the compound CCCc1ccc(S(=O)(=O)NC2CCN(c3ccnc(Nc4ccc(F)cc4)n3)C2)cc1 (stereo not drawn) [GSK1379715] is 0

Value of %Inh reported for the compound Nc1ncnc2[nH]c(-c3ccccc3)nc12 [AH5015] is 30

Value of %Inh reported for the compound Cl.NC(=O)c1cccc(Nc2nccc(Nc3ccc(Oc4cccc(Cl)c4)c(Cl)c3)n2)c1 [GW659008] is 9

----------
System: PHKG1
condition info: concentration: 1 μM, replicates: in singlicate; n = 1
Reported %Inh by item:
Answer with a number only, understood to be in %.

Recorded %Inh, per entry:
# compound, quantity name, unit string, meas value
data = [
    ("O=C(Nc1ccc2c(c1)OCO2)NC1CCN(c2ccnc(Nc3ccc(F)cc3)n2)C1 (centres unmarked)", "%Inh", "%", 0),
    ("Cc1cc(-c2ccc3c(c2)CC[C@@H](N[C@@H](C)c2ccccc2)C3)cnc1N.Cl", "%Inh", "%", 21),
    ("C[C@@H]1CCCCN1c1cc(-c2ccc3c(N)n[nH]c3c2)nc(N)n1", "%Inh", "%", 0),
]

Value of %Inh reported for the compound Cc1cccc(-c2nc(C)cc(Nc3ccncc3)n2)n1 is 0

Value of %Inh reported for the compound Fc1cc(Cl)ccc1Nc1ccnc2cc(I)ccc12 is 0

----------
Tested on: MYLK
condition info: concentration: 1 μM, replicates: in singlicate; n = 1
Field 'label' (enum: y / n). Set to y when %Inh is strictly under 20%; else n.

// query Identify whether the compound Cc1cccc(-c2nc(Nc3ccc4[nH]ncc4c3)c3ccccc3n2)n1 [GW857175] records %Inh below 20%.
// result n
